Overview of recorded growth inhibition for various compounds
method.summary: NCI Yeast Anticancer Drug Screen. Data for the mec2-1 strain (AID 157)
reported.conditions: S. cerevisiae mec2-1 strain, at 50.0 µM, hits give high values
About 79,000 compounds went through this panel and 15% of them were active in at least one assay; those are over-represented in the sample as a whole.
Field format: number, assumed %, no unit text.

CCOC(=O)/C(C#N)=C(\C)c1ccc(O)c(OC)c1 :: 8.95
CCC(CC)OC(=O)Nc1cccc2ccccc12 :: -9.65
O=C(O)CCC(=O)NC1c2ccccc2Oc2ccccc21 :: -1.75
O=C1CCC(=O)O1 :: 17
N/N=C1\C(=O)N(Cc2ccccc2)C(=O)C1C(=O)NCc1ccccc1 (stereo not given) :: 13.8
O=C1CC2(CCCc3sccc32)C(=O)N1 (stereo not given) :: -1.65
COc1cc(C(C)C)c(Oc2c(C)c(OC)cc(C(C)C)c2O)cc1C (tested in a mixture with another compound) :: -21.4
Cc1cccc(CNc2ncnc3[nH]ncc23)c1 :: -30.8
CCCCN=C(NC#N)NCCCC :: 7.9
O=[N+]([O-])c1ccc(Br)cc1 :: -14.2

Write down growth inhibition measured for item `COC(=O)[C@]1(C)CCC[C@]2(C)c3cc(Br)c(C(C)C)cc3CC[C@H]12`
-9.25

Identify the reported growth inhibition for the following entry. CCOC(=O)c1c(C)c2c(n1C)CCC(C(=O)OCC)C2=O (stereo not given)
9.4

State its growth inhibition for this compound: CCOC(=O)CC1c2ccc(O)cc2OC(=O)C1c1ccc(N)cc1 (stereo not given)
-17.5

Recall and state the measured growth inhibition for `COc1ccc(CC(=O)NCCc2ccc(OC)c(OC)c2)cc1Br` .
-4.85

###

method.summary: NCI Yeast Anticancer Drug Screen. Data for the bub3 strain (AID 167)
reported.conditions: S. cerevisiae bub3 mutant strain, at 50.0 µM, hits give high values
About 79,000 compounds went through this panel and 15% of them were active in at least one assay; those are over-represented in the sample as a whole.
observable: growth inhibition (%)
API: value field is a number in %; no unit string.

O=c1[nH]cc(NCCc2ccccc2)c(=O)[nH]1 :: 7.4
Nc1nc(-c2ccccc2)ns1 :: -17.8
CCC(CCC(C)C1CCC2C3CC=C4CC(OC(=O)Nc5ccccc5)CCC4(C)C3CCC12C)C(C)C (stereo unspecified) :: -1.5
CC(=O)OCC1OC2OC(C)(C)OC2C2OC(C)(C)OC12 (stereo unspecified) :: -7.65
CC1=NN(C(=O)c2ccncc2)C(=O)C1N=Nc1ccc(F)cc1 (stereo unspecified) :: -7.15

Using known records, supply growth inhibition for `COc1ccc(CCNC(=S)N/C=C\c2nc3ccccc3[nH]c2=O)cc1OC`
8

###

method.summary: NCI Yeast Anticancer Drug Screen. Data for the sgs1 mgt1 strain (AID 161);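 note: 0% = growth of cultures given vehicle only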
reported.conditions: S. cerevisiae sgs1 mgt1 strain, at 50.0 µM, hits give high values
The panel holds about 79,000 compounds, 15% with a hit somewhere; the sample as a whole holds those more often. Activity calls are given as the source filed them. Rule as the data show it: active = growth inhibition above about 70%; inactive = the rest.
observable: growth inhibition

N#Cc1c(-c2ccccc2)c(C#N)c(=S)n(C2OCC(O)C(O)C2O)c1N (stereo not given) :: -10% (inactive)
CCOC(=O)Oc1ccc(C(CNC(C)C)OC(=O)OCC)cc1OC(=O)OCC (stereo not given) :: 25.6% (inactive)
O=C(CCN1CCCCC1)c1cc2cc([N+](=O)[O-])ccc2oc1=O :: 23.2% (inactive)
CCOc1c(Cl)cc(Cl)cc1C(c1ccc(Cl)cc1S(=O)(=O)O)c1cc(Cl)cc(Cl)c1OCC :: 99.6% (active)

Now look at this one.
Return value of growth inhibition for input `COc1cc(NCCNCC(C)(C)C)c2ncccc2c1` , no commentary.
22.1% (inactive)

###

method.summary: NCI Yeast Anticancer Drug Screen. Data for the mec2-1 strain (AID 157)
reported.conditions: S. cerevisiae mec2-1 strain, at 50.0 µM, hits give high values
This is part of a sample that, as a whole, favours compounds with a hit. Of some 79,000 tested, about 15% had one in any assay.
The compounds listed here are annotated with their growth inhibition.
Give a bare numeral; the unit % is implied.

Sample records with growth inhibition:
Cc1cc(C)c([N+](=O)[O-])c(N)n1 :: -6.6
Ic1cc2c(cc1CNCc1ccccc1)OCO2 :: -19.6

Return growth inhibition (reported value) for this compound: `N/N=C/c1cccn1-c1ccccc1Cl`
15.3

Supply reported growth inhibition belonging to this compound: CC/C(CC(C)CC)=N\O (centres undefined)
-18.2

Specify growth inhibition for `Nn1c(-c2ccccc2)n[nH]c1=O` and stop.
-15.7

Return growth inhibition for the following compound: `O=C(CCN1CCOCC1)Nc1ccc(F)cc1F`
3.35

Please give the documented growth inhibition of `COc1ccccc1/C=C/C(=O)c1sc(-c2cccnc2)nc1C`
17.5

###

method.summary: NCI Yeast Anticancer Drug Screen. Data for the mec2-1 strain (AID 157)
reported.conditions: S. cerevisiae mec2-1 strain, at 50.0 µM, hits give high values
The panel holds about 79,000 compounds, 15% with a hit somewhere; the sample as a whole holds those more often.
Decision: growth inhibition >= 10% yields True, all other cases yield False.

Recorded results for 3 compounds are shown here.
CNc1nnnn1C1OC(CO)C(O)C1O (configuration not stated) :: False
O=P(c1ccccc1)(c1ccccc1)N1CC1c1ccccc1 (configuration not stated) :: True
CN(C)CCNC(=O)Cn1cc([N+](=O)[O-])c(=O)c2ccccc21 :: False

In plain terms: is recorded growth inhibition at least 10% for `O=c1[nH]c(=S)c2[nH]c(=O)n(-c3ccccc3)c2[nH]1` ?
False

Threshold query (growth inhibition >= 10%) on COc1ccc2c(c1)CC1(CC2)NCC(=O)NC1=O (configuration not stated)
True

Answer whether growth inhibition of `CCOC1(OCC)CCC2(CC1)c1ccccc1-c1ccccc12` is greater than or equal to 10%.
True

Entry CSc1nc(C)cc(=O)n1C1OC(COC(C)=O)C(OC(C)=O)C(OC(C)=O)C1OC(C)=O (configuration not stated) : is its growth inhibition no less than 10%?
False

Has `CCN(CC)C(=O)NCCCCCCNC(=O)N(CC)CC` a recorded growth inhibition greater than or equal to 10%?
False

Hi team, for `Cc1cc(C)c(NC(=O)Nc2cccc(Cl)c2)c(C)c1` , is the recorded growth inhibition at or above 10%?
True

Hi, just wondering whether `Cc1c(Cl)cccc1NC(=O)Nc1ccccc1` shows growth inhibition of 10% or higher.
False

Reported growth inhibition at or above 10%? `Cc1ccc(SCC(=O)O)c(C)c1`
True

###

# key: entry, value: growth inhibition
method.summary: NCI Yeast Anticancer Drug Screen. Data for the mlh1 rad18 strain (AID 175)
reported.conditions: S. cerevisiae mlh1 rad18 strain growth inhibition; at 50.0 µM; hits give high values
This is part of a sample that, as a whole, favours compounds with a hit. Of some 79,000 tested, about 15% had one in any assay.
Your answer should be a plain number; it is taken to be in %.

Cc1cc2nc3c(=O)[nH]c(=O)nc-3n(CCOC(=O)CCC(=O)O)c2cc1C :: 3.95
COC(=O)C(C(=O)C(=O)Nc1ccc(C(F)(F)F)cc1[N+](=O)[O-])c1csc(-n2nc(-c3ccccc3)cc2-c2ccccc2)n1 (stereo not given) :: 1.6
C[n+]1ccc(/C=C/c2ccc(O)c(O)c2)c2ccccc21 :: 43
CC1=C(C(=O)Nc2ccc([N+](=O)[O-])cc2)C(c2cccc([N+](=O)[O-])c2)C(C(=O)Nc2ccc([N+](=O)[O-])cc2)=C(C)N1 :: -15.1
CP1(=O)CC(=O)CCCCC(=O)C1 :: 19.6
CC1(C)C=Cc2c(ccc(C(=O)Cc3ccccc3)c2O)O1 :: 23.1
O=C(O)c1cccc(F)c1C(=O)c1ccc2ccccc2c1 :: -9.7
CCN(CC)Cc1cc(Nc2ccnc3ccc4nn(C)nc4c23)ccc1O :: -1.75
C=Cn1c2ccccc2c2ccccc21 :: -0.55

Output growth inhibition of Cc1[nH]c2ccccc2c1C1Cc2ccccc2N1C(=O)/C=C/C=C/c1ccccc1 (stereo not given)
15.2

###

Quick reference: growth inhibition of the listed items.
method.summary: NCI Yeast Anticancer Drug Screen. Data for the mec2-1 strain (AID 157)
reported.conditions: S. cerevisiae mec2-1 strain, at 50.0 µM, hits give high values
The panel holds about 79,000 compounds, 15% with a hit somewhere; the sample as a whole holds those more often. Calls of active or inactive are those of the source. Rule as the data show it: active = growth inhibition above about 70%; inactive = the rest.

CCc1ccccc1N1C(=O)C(=O)C(c2nc3ccccc3s2)C(=O)C1=O :: 5.05% (inactive)
COC(=O)CC1OCC=C2CN3CCC45C6=CC(=O)C(=O)C([N+](=O)[O-])=C6NC4C1C2CC35 (stereo not given) :: -22.4% (inactive)
COC(=O)c1cc(Cl)c(C(=O)OC)cc1Cl :: 3% (inactive)
N#Cc1cnc(SCC(=O)O)nc1N :: -39.6% (inactive)

Give reported growth inhibition value for `COc1ccccc1NC(=O)C1=C(C)NC(C)=C(C(=O)Nc2ccccc2OC)C1C1=CC=COC1`
-12.8% (inactive)

State, in one line, measured growth inhibition of N#CC(c1ccccc1)c1cccc(C(=O)O)c1 (stereo not given)
-13.5% (inactive)

Output measured growth inhibition for this item: `S=c1[nH]ncc(SCc2ccccc2)c1SCc1ccccc1`
2.85% (inactive)

Give the reported growth inhibition for this compound. `O=C1/C(=C/c2ccco2)CC/C1=C\c1ccco1`
15% (inactive)

Using known records, supply growth inhibition for `CCOC(=O)/C(=C/c1ccc(C(=O)OC)cc1)N(CC)CC`
-20.5% (inactive)

Look up and state reported growth inhibition for CCCNC(C)C(C)O (stereo not given)
-16.4% (inactive)

Supply recorded growth inhibition for `CCCCNC(=S)SSSSC(=S)NCCCC` here.
-14% (inactive)

Give me measured growth inhibition, please, for this compound: `COc1ccccc1Cn1nc(OC)c2cc([N+](=O)[O-])ccc21`
30.6% (inactive)

Fill in growth inhibition for record `COc1cc2nc(Sc3c([N+](=O)[O-])ncn3C)[nH]c2cc1OC`
-33.3% (inactive)

Entry `O=C(Cl)c1cc(I)c(I)c(I)c1` needs its growth inhibition filled in; supply it.
47.3% (inactive)

Find the measured growth inhibition of NC(=O)c1csc(NC2OC(CO)C(O)C(O)C2O)n1 (stereo not given) and report it.
-8.8% (inactive)

Please supply the value of reported growth inhibition for the item `Cc1nc(Cc2n[nH]c(C)n2)n[nH]1`
-6.65% (inactive)

Input CNC(=O)NC(c1cc(OC)c(O)c(OC)c1)c1cc2c(cc1O)OCO2 (stereo not given) , output reported growth inhibition.
38.8% (inactive)

Return reported growth inhibition. Input compound: CC1(CBr)COC(c2ccccc2)(C2CCCCC2)OC1 (stereo not given)
-14.8% (inactive)

Specify growth inhibition for `Cc1ccc(C(=O)Cc2ccccc2)cc1` and stop.
6.15% (inactive)

Using known records, supply growth inhibition for `Cc1c(CCO)sc[n+]1CC(=O)c1ccccc1`
-19% (inactive)
